All values here come from patent KR20140009174A.

molecular target: CXCR4/Rluc + CXCR4/YFP (HEK293 세포의 CXCR4 동종이량체 BRET 파트너) (human; Renilla reniformis); assay: cell-based or functional assay
Sequence (chain, as listed by the source, chain 1 of 2): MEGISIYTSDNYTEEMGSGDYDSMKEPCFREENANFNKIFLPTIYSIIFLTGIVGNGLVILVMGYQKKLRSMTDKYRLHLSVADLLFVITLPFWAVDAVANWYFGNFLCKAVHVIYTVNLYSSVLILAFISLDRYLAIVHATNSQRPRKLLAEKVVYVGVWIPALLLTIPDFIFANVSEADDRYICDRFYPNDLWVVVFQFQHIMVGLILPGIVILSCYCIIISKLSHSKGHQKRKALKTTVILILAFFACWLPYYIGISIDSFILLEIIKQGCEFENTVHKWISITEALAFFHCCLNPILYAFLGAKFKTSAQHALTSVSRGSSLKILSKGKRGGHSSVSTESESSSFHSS
Sequence (chain, as listed by the source, chain 2 of 2): as the sequence (chain, as listed by the source, chain 1 of 2) above
value.type: SDF-1-유도성 BRET 증가의 저해 백분율 (%)
API: value field is a number in %; no unit string.

Entry hz515H7 VH1 D76N VL2.1 (antibody, V domains shown) VH: EVQLVESGGGLVQPGRSLRLSCTASGFTFTDNYMSWVRQAPGKGLEWVGFIRNKANGYTTEYAASVKGRFTISRDNSKSIAYLQMNSLKTEDTAVYYCARDVGSNYFDYWGQGTLVTVSS VL: DIVMTQSPDSLAVSLGERATMSCKSSQSLFNSRTRKNYLAWYQQKPGQPPKLLIYWASARDSGVPDRFSGSGSETYFTLTISRVQAEDLAVYYCMQSFNLRTFGQGTKVEIKR needs its SDF-1-유도성 BRET 증가의 저해 백분율 filled in; supply it.
65
